Reference source for all entries: patent US7998977B2

- Test system: Phospho-GSK3b (pGSK3b), a target of Akt in cells
- experiment_summary: Cell-based ELISA (cELISA) for detection of phospho-GSK3b in U87MG cells
- cond: Homo sapiens, U-87 MG, 2 hr treatment, n=8, read-out: IC50, inhibition of pGSK3b
Where a name gives a salt, the structure may show the parent alone.
endpoint_label: pIC50
A value of pIC50 is the negative decimal logarithm of a concentration given in moles per litre.

Quick one: pIC50 of NCCS(=O)(=O)c1cc(-c2ccc(O)cc2)cc2cnccc12 [Example 1, di-hydrochloride Salt] ?
5.69

###

- system_tested: Active human recombinant Akt1 (full-length) (Homo sapiens, UniProt P31749)
- Construct: Active human recombinant Akt1 (full-length) purified from Sf9 insect cells
- Sequence (P31749 whole entry): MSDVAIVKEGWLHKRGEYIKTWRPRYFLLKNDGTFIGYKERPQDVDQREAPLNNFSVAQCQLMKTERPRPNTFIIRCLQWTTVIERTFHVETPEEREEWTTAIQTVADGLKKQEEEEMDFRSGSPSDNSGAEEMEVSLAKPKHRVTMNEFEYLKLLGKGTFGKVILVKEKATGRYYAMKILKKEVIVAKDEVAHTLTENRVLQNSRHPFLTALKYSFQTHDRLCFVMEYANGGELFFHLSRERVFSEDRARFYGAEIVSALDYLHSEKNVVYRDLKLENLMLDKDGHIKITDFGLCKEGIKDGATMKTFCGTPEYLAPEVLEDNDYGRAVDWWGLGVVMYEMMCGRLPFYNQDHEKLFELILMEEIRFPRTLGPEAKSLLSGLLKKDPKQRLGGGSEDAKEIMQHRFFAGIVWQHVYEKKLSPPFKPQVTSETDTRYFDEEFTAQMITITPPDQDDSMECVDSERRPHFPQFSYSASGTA
- experiment_summary: Akt1 Phosphorylation Assay (competitive fluorescence polarization immunoassay, FPIA)
- cond: 20 μM ATP, 60 min at room temperature, n=3; read-out: IC50, inhibition of Akt1 phosphorylation
Counter-ions that a name gives are not always drawn.
endpoint_label: pIC50
A value of pIC50 is the negative decimal logarithm of a concentration given in moles per litre.

Quick one: pIC50 of NCCS(=O)(=O)c1cc(-c2ccc(O)cc2)cc2cnccc12 [Example 1, di-hydrochloride Salt] ?
7.35
